Tested on: BT474R cells
method: cells
Format: cell-based, human
details: Homo sapiens, 72 h, read-out: Lapatinib (μM) IC50, BT474R cells, 72 h, lapatinib alone (Table 3)
test readout: IC50

INSERT INTO results (entry_smiles, measured_on, test_readout, result) VALUES
  ('CS(=O)(=O)CCNCc1ccc(-c2ccc3ncnc(Nc4ccc(OCc5cccc(F)c5)c(Cl)c4)c3c2)o1', 'BT474R cells', 'IC50', '1.43 µM');

* * *

System: BT474R cells
method: cells
Type: cell-based, human
details: Homo sapiens, 72 h, read-out: Lapatinib (μM) IC50, BT474R cells, 72 h, lapatinib alone (Table 4)
test readout: IC50 (µM)

INSERT INTO results (entry_smiles, quantitative_readout) VALUES
  ('CS(=O)(=O)CCNCc1ccc(-c2ccc3ncnc(Nc4ccc(OCc5cccc(F)c5)c(Cl)c4)c3c2)o1', 1.5);
